# Test system: BT-549 breast
# assay summary: NCI tumour cell line growth inhibition, 48 h
Each record here notes measured TGI.

Worked examples, 2 compounds total:
O=C1CC(=O)NC(=NN2C(=O)/C(=C/c3ccc(Cl)cc3)N=C2c2ccccc2)N1: 30.1 µM
CC(=O)O[C@H]1C[C@@H](OC(C)=O)[C@@](C)(O)[C@@H]2[C@@H](OC(C)=O)[C@@]3(O)[C@H](/C=C(/CCl)[C@H]4O[C@H]4[C@@H](OC(C)=O)[C@@]12C)OC(=O)[C@@H]3C: > 25 µM

Exercise: // query TGI value for entry CC(C)C/C(=N\NC(=O)c1ccncc1)c1cc(Cl)ccc1O
Key: > 25.6 µM
